B1: KCNAB2 (parent)
chain: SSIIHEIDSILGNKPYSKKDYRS

# Variants of: B1
# ASSAY PROCEDURE: protein stability index of a GFP-peptide fusion (GPS, HEK-293T) (PSI 1-6); higher = more stable;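 further: lentivirally expressed fusions sorted by FACS into six bins by GFP to DsRed ratio, PSI derived from sequencing read proportions per bin multiplied by bin number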
# CONDITION CONTEXT: c terminus: native
Is protein stability index at least 3? Then Y. If not, N.

Example entries begin here.
[
  {
    "MUTANT LABEL": "Y16W",
    "CAT": "N"
  },
  {
    "MUTANT LABEL": "I10M",
    "CAT": "Y"
  },
  {
    "MUTANT LABEL": "Y16A",
    "CAT": "N"
  }
]

In: Does protein stability index meet or surpass 3 for `S23R` ?
Out: N

In: Does protein stability index meet or surpass 3 for `K18P` ?
Out: N

In: Does protein stability index meet or surpass 3 for `L11W` ?
Out: N

In: Does protein stability index meet or surpass 3 for `S23T` ?
Out: Y

In: Does protein stability index meet or surpass 3 for `S17T` ?
Out: N

In: Does protein stability index meet or surpass 3 for `K14T` ?
Out: N
